# System: oxidation of lipids
# run-description: Conjugated diene determination, rat serum
# Assay type: in vivo, male Sprague-Dawley rats
# applied-conditions: pooled rat serum, diet 0.3%, 4 days, mean of 2 determinations
# Experimental: A typical experiment consisted of 4-6 groups of rats (N=5 per group) with 1 group being a control which received no MDL compound and the other groups being treated with 0.3% MDL compound. Some of the compounds were either repeated at 0.3% or evaluated again at the lower dose of 0.1%. […] Body weights and liver weights were recorded in grams. Food consumption was recorded as grams.cndot.day^-1.cndot.rat^-1. Deaths were recorded as mortality. […]
Exercise: for every item that follows, state its recorded CONJ. DIENE (conjugated diene lag phase).
Answers are plain numbers, in min.

Here's what some known entries look like.
compound="CC(=O)Oc1cc(C(C)(C)C)c(OC[Si](C)(C)c2ccccc2)cc1C(C)(C)C [MDL 106,290]" metric_name="CONJ. DIENE (conjugated diene lag phase)" number=372
compound="COc1ccc([Si](C)(C)COc2ccc(O)c(C(C)(C)C)c2)cc1 [MDL 106,834]" metric_name="CONJ. DIENE (conjugated diene lag phase)" number=492
compound="CC(=O)Oc1c(C)cc(OC[Si](C)(C)c2ccccc2)c(C)c1C [MDL 103,157]" metric_name="CONJ. DIENE (conjugated diene lag phase)" number=50
compound="CC(C)(C)c1cc(OC[Si](C)(C)c2ccccc2)ccc1OC(=O)CCC(=O)O [MDL 104,399]" metric_name="CONJ. DIENE (conjugated diene lag phase)" number=395

Field: next compound
Tell me CONJ. DIENE (conjugated diene lag phase) reported for CC(C)(C)c1cc(OC[Si](C)(C)c2ccccc2)c(C(C)(C)C)cc1O [MDL 104,962] 320
